These entries and their values trace back to PubChem BioAssay (NCI).

Listing of recorded TGI by entry.
# Tested on: SF-539 CNS
# Measurement description: NCI tumour cell line growth inhibition, 48 h

Quick one: TGI of `Cc1c(-c2cnccn2)ssc1=S` ?
> 100 µM

Quick one: TGI of Cc1ccc(CC2(C(=O)O)Cc3ccc(C)cc3C2)cc1 (stereo unspecified) ?
> 100 µM

Quick one: TGI of `N#C/C(=C\c1ccc(F)cc1)c1nc(-c2cc3ccccc3oc2=O)cs1` ?
65.9 µM

Quick one: TGI of `Cc1cc2nc(NCCN)n(Cc3ccc(F)c(Cl)c3)c2cc1C` ?
26 µM

Quick one: TGI of O=C1C2C(C(=O)N1c1ccccc1)C1(c3ccccc3)CCC2(C(=O)c2ccccc2)O1 (stereo unspecified) ?
> 10 µM

Quick one: TGI of C=C(C)[C@H]1CC[C@@]2(C)C(C1)[C@H](C)CC[C@@H]2O (stereo partly specified) ?
> 100 µM
